test system: lipase; assay: Lipase activity retention in detergent use solution (4000 ppm, 5 GPG water; p-nitrophenyl valerate, TRIS buffer pH 8.0); type: biochemical; conditions: base formula, phosphonate 0.6 wt-%, use solution at 120º F., time 10 min
ASSAY ENDPOINT: Relative Lipase Enzyme Activity

COMPOUND	STUDY SYSTEM	ASSAY ENDPOINT	RESULT
NCP(=O)(O)O [AMPA, Aminomethyl phosphonic acid]	lipase	Relative Lipase Enzyme Activity	64.48%
O=P(O)(O)CN(CP(=O)(O)O)CP(=O)(O)O [ATMP, Aminotri (methylene phosphonic acid)]	lipase	Relative Lipase Enzyme Activity	87.80%
O=C(O)CCC(CC(=O)O)(C(=O)O)P(=O)(O)O (stereo not shown) [PBTC, Phosphonebutane tricarboxylic acid]	lipase	Relative Lipase Enzyme Activity	62.20%
CC(O)(P(=O)(O)O)P(=O)(O)O [HEDP]	lipase	Relative Lipase Enzyme Activity	59.92%

====

tested on: lipase; assay: Lipase activity retention in detergent use solution (4000 ppm, 5 GPG water; p-nitrophenyl valerate, TRIS buffer pH 8.0); assay type: biochemical; settings: base formula, phosphonate 0.6 wt-%, use solution at 120º F., time 90 min
ASSAY ENDPOINT: Relative Lipase Enzyme Activity (%)

MOLECULE	QUANTITATIVE READOUT
NCP(=O)(O)O [AMPA, Aminomethyl phosphonic acid]	19.59
O=P(O)(O)CN(CP(=O)(O)O)CP(=O)(O)O [ATMP, Aminotri (methylene phosphonic acid)]	49.58
O=C(O)CCC(CC(=O)O)(C(=O)O)P(=O)(O)O (stereo not shown) [PBTC, Phosphonebutane tricarboxylic acid]	16.36
CC(O)(P(=O)(O)O)P(=O)(O)O [HEDP]	17.91

====

# Lookup of reported Relative Lipase Enzyme Activity keyed by entry
Tested on: lipase
Test: Lipase activity retention in detergent use solution (4000 ppm, 5 GPG water; p-nitrophenyl valerate, TRIS buffer pH 8.0)
Assay type: biochemical
Conditions: base formula, phosphonate 0.6 wt-%, use solution at 120º F., time 40 min
Procedure: The enzyme […] collected up to 4 hours, after a use solution was generated from the detergent composition. During the tests, the samples at different time points were collected and immediately frozen in an acetone/dry ice bath and stored in −80° C. before the activity of the enzyme was evaluated. […] Enzyme activity under presoak or manual warewash conditions was traced quantitatively using a standard protease assay. […]
ASSAY ENDPOINT: Relative Lipase Enzyme Activity (%)

COMPOUND	UNIT STRING	QUANTITATIVE READOUT
CC(O)(P(=O)(O)O)P(=O)(O)O	%	33.30
O=C(O)CCC(CC(=O)O)(C(=O)O)P(=O)(O)O (stereo not shown)	%	31.89
NCP(=O)(O)O	%	37.77
O=P(O)(O)CN(CP(=O)(O)O)CP(=O)(O)O	%	60.03

====

system: amylase; assay: Amylase activity retention in detergent use solution (4000 ppm, 5 GPG water; ethylidene substrate EPS, HEPES buffer pH 8.0); format: biochemical; conditions: base formula, phosphonate 0.3 wt-%, use solution at 120° F., time 20 min
# Lookup of reported Relative Amylase Enzyme Activity keyed by entry
ASSAY ENDPOINT: Relative Amylase Enzyme Activity (%)

COMPOUND	STUDY SYSTEM	QUANTITATIVE READOUT
O=C(O)CCC(CC(=O)O)(C(=O)O)P(=O)(O)O (stereo not shown)	amylase	86.69
O=P(O)(O)CN(CP(=O)(O)O)CP(=O)(O)O	amylase	79.67
NCP(=O)(O)O	amylase	101.29
CC(O)(P(=O)(O)O)P(=O)(O)O	amylase	95.23

====

# Lookup of reported Relative Amylase Enzyme Activity keyed by entry
System: amylase
Test: Amylase activity retention in detergent use solution (4000 ppm, 5 GPG water; ethylidene substrate EPS, HEPES buffer pH 8.0)
Format: biochemical
Conditions: base formula, phosphonate 0.6 wt-%, use solution at 120º F., time 90 min
Procedure: The enzyme activities in the detergents with different phosphonate levels were tested at 4000 ppm in 5 grains per gallon (GPG) water at 120° F. with various time points collected up to 4 hours, after a use solution was generated from the detergent composition. During the tests, the samples at different time points were collected and immediately frozen in an acetone/dry ice bath and stored in −80° C. before the activity of the enzyme was evaluated. […]

COMPOUND	Relative Amylase Enzyme Activity, %
O=P(O)(O)CN(CP(=O)(O)O)CP(=O)(O)O	92.19
NCP(=O)(O)O	90.32
CC(O)(P(=O)(O)O)P(=O)(O)O	94.67
O=C(O)CCC(CC(=O)O)(C(=O)O)P(=O)(O)O (stereo not shown)	71.11

====

test system: lipase; assay: Lipase activity retention in detergent use solution (4000 ppm, 5 GPG water; p-nitrophenyl valerate, TRIS buffer pH 8.0); type: biochemical; details: base formula, phosphonate at 0.1% elemental phosphorus, at 120º F. or at room temperature (as titled), time 210 min

COMPOUND	Relative Lipase Enzyme Activity / %
O=P(O)(O)CN(CP(=O)(O)O)CP(=O)(O)O	17.94
NCP(=O)(O)O	17.74
O=C(O)CCC(CC(=O)O)(C(=O)O)P(=O)(O)O (stereo not shown)	9.16
CC(O)(P(=O)(O)O)P(=O)(O)O	7.99

====

tested on: lipase; assay: Lipase activity retention in detergent use solution (4000 ppm, 5 GPG water; p-nitrophenyl valerate, TRIS buffer pH 8.0); format: biochemical; conditions: base formula, phosphonate 0.6 wt-%, use solution at 120º F., time 20 min
# Lookup of reported Relative Lipase Enzyme Activity keyed by entry
ASSAY ENDPOINT: Relative Lipase Enzyme Activity (%)

COMPOUND	STUDY SYSTEM	QUANTITATIVE READOUT
NCP(=O)(O)O [AMPA, Aminomethyl phosphonic acid]	lipase	49.45
O=C(O)CCC(CC(=O)O)(C(=O)O)P(=O)(O)O (stereo not shown) [PBTC, Phosphonebutane tricarboxylic acid]	lipase	44.99
CC(O)(P(=O)(O)O)P(=O)(O)O [HEDP]	lipase	48.34
O=P(O)(O)CN(CP(=O)(O)O)CP(=O)(O)O [ATMP, Aminotri (methylene phosphonic acid)]	lipase	81.36

====

system: protease; assay: Protease activity retention in detergent use solution (4000 ppm, 5 GPG water; peptidyl substrate, glycine buffer pH 9.0); type: biochemical; conditions: base formula, phosphonate 0.6 wt-%, use solution at 120° F., time 180 min
ASSAY ENDPOINT: Relative Protease Enzyme Activity (%)

COMPOUND	STUDY SYSTEM	UNIT STRING	QUANTITATIVE READOUT
O=P(O)(O)CN(CP(=O)(O)O)CP(=O)(O)O	protease	%	89.08
CC(O)(P(=O)(O)O)P(=O)(O)O	protease	%	0.92
O=C(O)CCC(CC(=O)O)(C(=O)O)P(=O)(O)O (stereo not shown)	protease	%	0.91
NCP(=O)(O)O	protease	%	47.47

====

# Lookup of reported Relative Amylase Enzyme Activity keyed by entry
system: amylase; assay: Amylase activity retention in detergent use solution (4000 ppm, 5 GPG water; ethylidene substrate EPS, HEPES buffer pH 8.0); type: biochemical; details: base formula, phosphonate at 0.1% elemental phosphorus level, use solution at 120º F., time 10 min

MOLECULE	Relative Amylase Enzyme Activity [%]
O=P(O)(O)CN(CP(=O)(O)O)CP(=O)(O)O	107.32
NCP(=O)(O)O	102.34
O=C(O)CCC(CC(=O)O)(C(=O)O)P(=O)(O)O (stereo not shown)	98.00
CC(O)(P(=O)(O)O)P(=O)(O)O	97.58

====

tested on: protease; test: Protease activity retention in detergent use solution (4000 ppm, 5 GPG water; peptidyl substrate, glycine buffer pH 9.0); format: biochemical; conditions: base formula, phosphonate at 0.1% elemental phosphorus, use solution at 120° F., time 0 min
# Lookup of reported Relative Protease Enzyme Activity keyed by entry

MOLECULE	UNIT STRING	Relative Protease Enzyme Activity
O=C(O)CCC(CC(=O)O)(C(=O)O)P(=O)(O)O (stereo not shown)	%	100.00
CC(O)(P(=O)(O)O)P(=O)(O)O	%	100.00
NCP(=O)(O)O	%	107.11
O=P(O)(O)CN(CP(=O)(O)O)CP(=O)(O)O	%	100.00

====

tested on: enzyme (protease, amylase, lipase); assay: Overall effects of phosphonates on enzyme activity (Table 3); assay type: biochemical; conditions: overall effect of the phosphonate on enzyme activity in the detergent use solution

MOLECULE	Stability (effects on enzyme activity)
CC(O)(P(=O)(O)O)P(=O)(O)O [HEDP]	No
O=P(O)(O)CN(CP(=O)(O)O)CP(=O)(O)O [ATMP, Aminotri (methylene phosphonic acid)]	Yes
NCP(=O)(O)O [AMPA, Aminomethyl phosphonic acid]	Yes
O=C(O)CCC(CC(=O)O)(C(=O)O)P(=O)(O)O (stereo not shown) [PBTC, Phosphonebutane tricarboxylic acid]	No

====

# Lookup of reported Relative Lipase Enzyme Activity keyed by entry
test system: lipase; experiment: Lipase activity retention in detergent use solution (4000 ppm, 5 GPG water; p-nitrophenyl valerate, TRIS buffer pH 8.0); assay type: biochemical; settings: base formula, phosphonate at 0.1% elemental phosphorus, at 120º F. or at room temperature (as titled), time 60 min
ASSAY ENDPOINT: Relative Lipase Enzyme Activity (%)

COMPOUND	QUANTITATIVE READOUT
NCP(=O)(O)O	44.19
O=C(O)CCC(CC(=O)O)(C(=O)O)P(=O)(O)O (stereo not shown)	19.97
CC(O)(P(=O)(O)O)P(=O)(O)O	19.99
O=P(O)(O)CN(CP(=O)(O)O)CP(=O)(O)O	37.66
